Numbers sourced from paper PMC5540273.

Consider the following compounds and their measured %Inh readings.
Tested on: YES
Construct: gene YES1
assay.conditions: concentration: 1 μM, replicates: in singlicate; n = 1;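 note: KINOMEscan kinase panel screen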
Give your result in % as a bare value.

• Fc1ccc(-c2ncn(CCCN3CCOCC3)c2-c2ccccn2)cc1 [SB-211742] = 0
• COc1ccc(Nc2nccc(N3CCC(NC(=O)Nc4cccc(C(C)=O)c4)C3)n2)cc1 (stereo not shown) [GSK1379731] = 0
• COC(=O)Nc1nc2cc(Oc3ccc(NC(=O)Nc4cc(F)ccc4F)cc3)ccc2[nH]1.Cl [GW701424] = 11

Bench note, YES: entry O=c1cc(N2CCOCC2)nc2n(Cc3cccc(F)c3)ccn12 [GSK2297430] , its %Inh = 16

Simply: O=c1cc(N2CCOCC2)nc2n(Cc3cccc(C(F)(F)F)c3)ccn12 [GSK2297543] , YES, %Inh = 9

Param item: COc1cc2c(cc1OC[C@@H](O)CO)ncc1c3ccc(C#N)cc3[nH]c21 ; param system: YES; output %Inh: 0

Reported YES %Inh for item COc1cc2c(cc1OCCN1CCN(C)CC1)ncc1c3ccc(C#N)cc3[nH]c21 was 3

The measured %Inh that Cn1cc(-c2ccc3c(c2)CCN3C(=O)Cc2ccccc2Cl)c2c(N)ncnc21 [GSK2608885] showed for YES is 99.7

So the reported %Inh for Cc1cccc(-c2nc(-c3ccc(S(C)(=O)=O)cc3)sc2-c2ccncc2)c1 , on YES, turned out to be 0

The reported %Inh value, YES, for O=C(NOCC1CC1)c1ccc(F)c(F)c1Nc1ccc(I)cc1Cl reads 0

Measured %Inh for this entry Cc1ccc(NC(=O)c2ccnc(N3CCN(C)CC3)c2)cc1-c1ccc(C(=O)NCC2CC2)cc1 [GW775604] on YES: 0

Field %Inh (system: YES) for entry Nc1nc(-c2ccc3c(N)n[nH]c3c2)cc(N2CCCC2)n1 [GSK2227430] = 0

// %Inh (YES) for CCCCCc1nc2c(N)ncnc2n1CCCCC [SKF-97255] = 0

Record C[C@@H](Oc1cc(-n2cnc3ccc(NC(=O)NC(C)(C)C)cc32)sc1C(N)=O)c1ccccc1Cl [GSK346294] has YES %Inh equal to 3

Measured on YES, O=C1Cc2cc(Nc3nc(NCc4cccc(S(=O)(=O)C(F)(F)F)c4)ncc3C(F)(F)F)ccc2N1 has a documented %Inh of 8

Item O=C1NC(=O)C(N2CCc3ccccc32)=C1c1cccc(Cl)c1 [SB-408010] was tested on YES; the reported %Inh is 0

---

System: LCK
assay.conditions: concentration: 1 μM, replicates: in singlicate; n = 1
attribute.measured: %Inh (%)
Numbers only; they are read as %.

Reference set (5 entries):
- NS(=O)(=O)c1cccc(-c2ccc3nccc(-c4cccc(S(N)(=O)=O)c4)c3c2)c1: 0
- O=c1cc(N2CCOCC2)nc2n(Cc3cccc(Cl)c3Cl)c(C3CC3)nn12: 23
- CCc1ccnc(/C=C/c2n[nH]c3cc(Sc4ccccc4C(=O)NC)ccc23)c1: 5
- COc1ccc(Nc2nccc(N3CCC(NC(=O)Nc4cccc(C(C)=O)c4)C3)n2)cc1 (stereo not drawn): 0
- Cc1c(Cn2c(C)nn3c(=O)cc(N4CCOC(C)C4)nc23)cccc1C(F)(F)F (stereo not drawn): 20

// recorded %Inh for Cc1cccc(-c2nc(Nc3ccc4ncsc4c3)c3ccccc3n2)n1 : 9

What the record says about C[C@@H](Oc1cc(-n2cnc3ccc(NC(=O)NC(C)(C)C)cc32)sc1C(N)=O)c1ccccc1Cl : %Inh is 37

# %Inh (molecule: Cc1ccc(C(=O)NCC(N)=O)cc1-n1c(C)cc(OCc2ccc(F)cc2F)c(Br)c1=O ) is 25

Input c1ccc(-c2n[nH]cc2-c2ccnc3ccccc23)nc1 . Output %Inh: 17

Lookup result for NCC(NC(=O)c1cc(-c2cn[nH]c2)c(-c2ccnc3[nH]ccc23)s1)c1ccccc1.O=C(O)C(F)(F)F.O=C(O)C(F)(F)F (stereo not drawn) ; measured %Inh: 4

Field %Inh (entry COc1ccc(S(=O)(=O)NC2CCN(c3cc(C)nc(Nc4cccc(C#N)c4)n3)CC2)cc1.O=C(O)C(F)(F)F ) reads 8

// sample CC(C)(C)n1cnc2c(N)ncnc21 , its %Inh was 0

---

Test system: FLT1
assay.conditions: concentration: 1 μM, replicates: in singlicate; n = 1
attribute.measured: %Inh (%)
Just the number in %, nothing appended.

Example cases with answers are listed next.
* Fc1ccc(-c2nn3c(OCC(F)(F)F)cccc3c2-c2ccncc2)cc1 [GW514784] | 35
* Fc1ccc(-c2ncn(CCCN3CCOCC3)c2-c2ccccn2)cc1 [SB-211742] | 23
* Cc1cccc(Cn2ccn3c(=O)cc(N4CCOCC4)nc23)c1 [GSK2297542] | 20

O=C1Cc2cc(Nc3nc(NCc4cccc(S(=O)(=O)C(F)(F)F)c4)ncc3C(F)(F)F)ccc2N1 yielded %Inh of 0

Query Nc1nc(-c2ccc3c(N)n[nH]c3c2)cc(N2CCCC2)n1 [GSK2227430] yields %Inh of 14

---

Tested on: CLK2
assay.conditions: concentration: 1 μM, replicates: in singlicate; n = 1
Form field: %Inh (one value per entry).
Give just the numeric value; % need not be written.

Example molecules with recorded %Inh:
- NS(=O)(=O)c1cccc(-c2ccc3nccc(-c4cccc(S(N)(=O)=O)c4)c3c2)c1: 25
- NCC(NC(=O)c1cc(-c2cn[nH]c2)c(-c2ccnc3[nH]ccc23)s1)c1ccccc1.O=C(O)C(F)(F)F.O=C(O)C(F)(F)F (stereo not shown): 68
- Cc1c2ccc(N(C)c3ccnc(Nc4cccc(S(N)(=O)=O)c4)n3)cc2nn1Cc1ccccc1.Cl.Cl: 12

For Cl.Nc1ncnc2occ(-c3ccc(NC(=O)Nc4cc(C(F)(F)F)ccc4F)cc3)c12 the molecule record lists %Inh as 11

---

System: PRKCQ
assay.conditions: concentration: 1 μM, replicates: in singlicate; n = 1
Each record is given y if its reported %Inh is strictly below 8%. Records at or above 8% are given n.

Use these answered entries as a reference point.
- Nc1nccc(-c2c(-c3ccc(F)cc3)ncn2C2CCN(CC(F)(F)F)CC2)n1: n
- Nc1nc(-c2ccc3c(N)n[nH]c3c2)cc(N2CCCC2)n1: n
- c1ccc(-c2n[nH]cc2-c2ccnc3ccccc23)nc1: y
- O=C1Cc2cc(Nc3nc(NCc4cccc(S(=O)(=O)C(F)(F)F)c4)ncc3C(F)(F)F)ccc2N1: y
- Cc1cccc(Cn2ccn3c(=O)cc(N4CCOCC4)nc23)c1: n

Q. Bench note: check whether NS(=O)(=O)c1cccc(-c2ccc3ncc(N4CCOCC4)nc3c2)c1 shows %Inh below 8%
A. y

Q. Lab log: compare recorded %Inh with 8%; is it strictly lower for [2H]C([2H])(c1cccc(C(F)(F)F)c1C)n1ccn2c(=O)nc(N3CCOCC3)cc12 ?
A. n

Q. %Inh strictly < 8% for this compound? COc1ccc(COc2cc(-n3cnc4ccccc43)sc2C(N)=O)cc1
A. n

Q. Is it true that %Inh reported for N#Cc1ccc(-c2cc(-c3c[nH]nc3-c3ccccn3)ccn2)cc1 is less than 8%?
A. n

---

Test system: ERN1
assay.conditions: concentration: 1 μM, replicates: in singlicate; n = 1
Quick rule for you: %Inh under 10% gets yes (1), anything else gets no (0).

• Cn1ccc2ncnc(Oc3ccc(NC(=O)Nc4ccncc4)c(Cl)c3)c21 = yes (1)
• CCn1cnc2c(N)ncnc21 [GW345098] = no (0)
• NS(=O)(=O)CCc1cccc(Nc2nccc(-c3c(-c4cccc(NC(=O)c5c(F)cccc5F)c4)nn4ccccc34)n2)c1 [GSK336735] = no (0)
• COc1ccc(Nc2nccc(N3CCC(NC(=O)Nc4cccc(C(C)=O)c4)C3)n2)cc1 (stereo not drawn) [GSK1379731] = yes (1)
• O=C(Nc1cccc(-c2nn3ncccc3c2-c2ccnc(Nc3cccc(C(F)(F)F)c3)n2)c1)c1c(F)cccc1F [GSK299495] = no (0)
• N#Cc1ccc(-c2cc(-c3c[nH]nc3-c3ccccn3)ccn2)cc1 [GW693028] = yes (1)
• Cc1cccc(Cn2ccn3c(=O)cc(N4CCOCC4)nc23)c1 [GSK2297542] = no (0)
• O=C(NCCNc1ccnc(Nc2ccc(F)cc2)n1)c1cc2ccccc2s1 [GSK1379874] = no (0)

Q. Please check: %Inh for c1ccc(-c2cc(-c3c[nH]nc3-c3ccccn3)ccn2)cc1 [GW576604] , strictly under 10% or not?
A. yes (1)

---

Tested on: DDR1
assay.conditions: concentration: 1 μM, replicates: in singlicate; n = 1
attribute.measured: %Inh (%)
Give the value, in units of %, as a plain number.

Worked cases, answers included:
• COc1cc2c(cc1OCCN1CCN(C)CC1)ncc1c3ccc(C#N)cc3[nH]c21 = 0
• COC(=O)Nc1nc2cc(Oc3ccc(NC(=O)Nc4cc(F)ccc4F)cc3)ccc2[nH]1.Cl [GW701424] = 100
• [2H]C([2H])(c1cccc(C(F)(F)F)c1C)n1ccn2c(=O)nc(N3CCOCC3)cc12 [GSK2336394] = 0

Item: Fc1ccc(-c2ncn(CCCN3CCOCC3)c2-c2cccnc2)cc1 [SB-211743] | System: DDR1 | %Inh: 0

Summary: O=C(NCCCN1CCOCC1)c1cccc(Nc2nccc(Nc3ccc(Oc4ccccc4)cc3)n2)c1 [GW663929] , DDR1, %Inh = 35

The reported %Inh value, DDR1, for CNc1ncnc2[nH]ncc12 [SKF-18355] reads 0

Reading of %Inh for NCCNS(=O)(=O)c1ccc(-c2ccnc3[nH]ccc23)cc1 [GSK977617] with DDR1: 0

Item Cc1cccc(-c2nc(Nc3ccc4ncsc4c3)c3ccccc3n2)n1 [GW867588] was tested on DDR1; the reported %Inh is 0

Known value: DDR1 %Inh of the compound Cc1nnc(-c2ccc3occ(-c4ccc(C(C)O)cc4)c3c2)o1 (centres unmarked) equals 12

Bench note, DDR1: entry Cc1c2ccc(N(C)c3ccnc(Nc4cccc(S(N)(=O)=O)c4)n3)cc2nn1Cc1ccccc1.Cl.Cl [GW787226] , its %Inh = 97.7
